Numbers sourced from PubChem BioAssay (NCATS).

- protocol_description: qHTS profiling for inhibitors of Plasmodium falciparum proliferation (AID 504749); also: nearly all actives have a fitted effect of over 60% in size; also: potency is read from the fitted curve at half-maximal effect
- assay_setup: P. falciparum in erythrocytes, SYBR Green DNA, 72 h; parasite line A
Inconclusive results are not listed. Activity calls are given as the source filed them. Calls follow the shape of the dose curve; as a rule, active = well fitted inhibition curve with a large enough effect; inconclusive = small, poorly fitted or top-dose-only effect; inactive = flat fitted curve, though single readings scatter.
experimental_readout: Potency

These solved cases illustrate the format of a correct answer.
compound | Potency
CCOc1cc(-c2nccc3cc(OC)c(OC)cc23)cc(OCC)c1OCC | 8.91 µM (active)
COc1cc(NCCCC(C)N)c2ncccc2c1 (centres undefined) | 2 µM (active)

Challenge: Recall and state the measured Potency for C=C1C(CCl)(CCl)C2(Cl)C(Cl)C(Cl)C1(Cl)C2(Cl)Cl (centres undefined) .
Response given: 2.51 µM (active)

Challenge: Recall and state the measured Potency for `CC1=CC(=C(c2ccc(N)cc2)c2ccc(N)cc2)C=CC1=N` .
Response given: 1.41 µM (active)

Challenge: Recall and state the measured Potency for `CCOC(=O)c1c[nH]c2cc(OCC(C)C)c(OCC(C)C)cc2c1=O` .
Response given: 0.0398 µM (active)

Challenge: Recall and state the measured Potency for `Nc1ccc(N=Nc2ccccc2)c(N)n1` .
Response given: 10 µM (active)

Challenge: Recall and state the measured Potency for CC(CN(C)C)CN1c2ccccc2Sc2ccc(C(F)(F)F)cc21 (centres undefined) .
Response given: 11.2 µM (active)

Challenge: Recall and state the measured Potency for `NC(=S)N=Nc1ccc(NN=C(N)N)cc1` .
Response given: 10 µM (active)

Challenge: Recall and state the measured Potency for CCCC(CCC)C(=O)OC1C[C@H]2CC[C@@H](C1)[N+]2(C)C (some centres undefined) .
Response given: 5.62 µM (active)

* * *

- Tested on: CP191
- protocol_description: qHTS profiling for inhibitors of Plasmodium falciparum proliferation (AID 504749); also: nearly all actives have a fitted effect of over 60% in size
- assay_setup: P. falciparum in erythrocytes, SYBR Green DNA, 72 h; series mostly up to 28.7 µM
Inconclusive results are not listed. The source made the active and inactive calls. Calls follow the shape of the dose curve; as a rule, active = well fitted inhibition curve with a large enough effect; inconclusive = small, poorly fitted or top-dose-only effect; inactive = flat fitted curve, though single readings scatter.
Select the matching outcome among True for active, False for inactive

# example entries with known answers
molecule | assigned_category
COc1cc(C)c(/C=C/C(C)=C/C=C/C(C)=C/C(=O)O)c(C)c1C | False
CC(C)CCC[C@@H](C)[C@H]1CC[C@H]2[C@@H]3CC[C@@H]4C[C@H](O)CC[C@]4(C)[C@H]3CC[C@]12C | False
COc1cc(NCCCC(C)N)c2ncccc2c1 (stereo not drawn) | True
CCOc1ccc(NC(=S)Nc2ccc(OCC)cc2)cc1 | False
CC1=CC(=C(c2ccc(N)cc2)c2ccc(N)cc2)C=CC1=N | True

Challenge: What outcome does the record of this test show for `Cn1cc(NC(=O)c2cc(NC(=O)c3cc(NC=O)cn3C)cn2C)cc1C(=O)NCCC(=N)N` ?
Response given: True

Challenge: What outcome does the record of this test show for CC1=CCC2CC1C2(C)C (stereo not drawn) ?
Response given: False

Challenge: What outcome does the record of this test show for CC1CCCCN1CCCOC(=O)c1ccccc1 (stereo not drawn) ?
Response given: False

Challenge: What outcome does the record of this test show for NCC(O)CC(=O)O (stereo not drawn) ?
Response given: False

Challenge: What outcome does the record of this test show for `Cc1ccc(S(=O)(=O)O)cc1C` ?
Response given: False

* * *

- Tested on: CP192
- protocol_description: qHTS profiling for inhibitors of Plasmodium falciparum proliferation (AID 504749); also: nearly all actives have a fitted effect of over 60% in size
- assay_setup: P. falciparum in erythrocytes, SYBR Green DNA, 72 h; series mostly up to 28.7 µM
- Protocol: NIH National Institute of Allergy and Infectious Diseases [NIAID] NIH Chemical Genomics Center [NCGC] […] Because mature erythrocytes lack DNA, only Plasmodium-derived DNA is detected. NCGC Assay Protocol Summary: The SYBR Green viability assay was adapted from a method described previously (Plouffe et al., 2008). […] The following morning, fluorescence intensity at 485(14) nm excitation and 535(25) nm emission wavelengths was measured on an EnVision (Perkin Elmer) plate reader. […]
Results filed as inconclusive are left out. Calls of active or inactive are those of the source. Calls come from the whole dose curve; as a rule, active = well fitted inhibition curve with a large enough effect; inconclusive = small, poorly fitted or top-dose-only effect; inactive = flat fitted curve, though single readings scatter.
Select the matching outcome among class 1 (active), class 0 (inactive)

# example entries with known answers
compound | assigned_category
CC(CNC(=O)c1cccnc1)NC(=O)c1cccnc1 (configuration not stated) | class 0
CC(=O)Oc1cccc2c1C(=O)c1c(OC(C)=O)cc(C(=O)O)cc1C2=O | class 0
N[C@@H](Cc1cc(I)c(Oc2ccc(O)c(I)c2)c(I)c1)C(=O)O | class 0
N#Cc1ccc2c(c1)N(CCCN1CCC(O)CC1)c1ccccc1S2 | class 0
C[Si](C)(C)O[Si](C)(C)C | class 0

Challenge: What outcome does the record of this test show for `F[Si-2](F)(F)(F)(F)F` ?
Response given: class 0

Challenge: What outcome does the record of this test show for CC(C)c1nc(N(C)S(C)(=O)=O)nc(-c2ccc(F)cc2)c1/C=C/C(O)CC(O)CC(=O)O (configuration not stated) ?
Response given: class 0

Challenge: What outcome does the record of this test show for `NC(=S)N=Nc1ccc(NN=C(N)N)cc1` ?
Response given: class 1

Challenge: What outcome does the record of this test show for `C[C@H](O)CN(C)C` ?
Response given: class 0

Challenge: What outcome does the record of this test show for `CCc1ncnc2cc(OC)c(OC)cc12` ?
Response given: class 0

Challenge: What outcome does the record of this test show for `Nc1nc(=O)n([C@@H]2CS[C@H](CO)O2)cc1F` ?
Response given: class 0

Challenge: What outcome does the record of this test show for O=C1CCC(c2ccccc2)(C2CCN(Cc3ccccc3)CC2)C(=O)N1 (configuration not stated) ?
Response given: class 0

Challenge: What outcome does the record of this test show for `CCCCCCCCCC(=O)NO` ?
Response given: class 0

Challenge: What outcome does the record of this test show for CC(C)(Oc1ccc(C2CCCc3ccccc32)cc1)C(=O)O (configuration not stated) ?
Response given: class 0

Challenge: What outcome does the record of this test show for CC(CCc1ccc(O)cc1)NCC(O)c1ccc(O)cc1 (configuration not stated) ?
Response given: class 0

Challenge: What outcome does the record of this test show for `COc1ccc(C(=O)CCC(=O)O)c2ccccc12` ?
Response given: class 0

Challenge: What outcome does the record of this test show for `CCCCC` ?
Response given: class 0

Challenge: What outcome does the record of this test show for `C=CCCCCCCCCC(=O)OC` ?
Response given: class 0

Challenge: What outcome does the record of this test show for `CCOC(=S)SSC(=S)OCC` ?
Response given: class 0

Challenge: What outcome does the record of this test show for `C[C@H](CCCC(C)(C)O)[C@H]1CC[C@H]2[C@@H]3CC=C4C[C@@H](O)CC[C@]4(C)[C@H]3CC[C@]12C` ?
Response given: class 0

Challenge: What outcome does the record of this test show for `COC(=O)[C@@H](N)CS` ?
Response given: class 0

Challenge: What outcome does the record of this test show for `C=CCOc1ccc(CC(=O)O)cc1Cl` ?
Response given: class 0

Challenge: What outcome does the record of this test show for `CN1CCC(OC(=O)C(Oc2ccc(Cl)cc2)Oc2ccc(Cl)cc2)CC1` ?
Response given: class 0

Challenge: What outcome does the record of this test show for `CNC(=O)OCc1cccc(COC(=O)NC)n1` ?
Response given: class 0

Challenge: What outcome does the record of this test show for CC(CC=O)CCCC(C)(C)O (configuration not stated) ?
Response given: class 0

Challenge: What outcome does the record of this test show for CCCCCCCCCCCC(=O)OCC(O)CO (configuration not stated) ?
Response given: class 0

Challenge: What outcome does the record of this test show for `CC(=O)N=c1sc(S(N)(=O)=O)nn1C` ?
Response given: class 0

* * *

- Test system: CP252
- protocol_description: qHTS profiling for inhibitors of Plasmodium falciparum proliferation (AID 504749); also: nearly all actives have a fitted effect of over 60% in size
- assay_setup: P. falciparum in erythrocytes, SYBR Green DNA, 72 h; series mostly up to 28.7 µM
Records with an inconclusive call do not appear. The source made the active and inactive calls. Calls come from the whole dose curve; as a rule, active = well fitted inhibition curve with a large enough effect; inconclusive = small, poorly fitted or top-dose-only effect; inactive = flat fitted curve, though single readings scatter.
Select the matching outcome among active, inactive

compound | system_name | assigned_category
Nc1ccc(N=Nc2ccccc2)c(N)n1 | CP252 | inactive
NC(=S)N=Nc1ccc(NN=C(N)N)cc1 | CP252 | active
OC1OC[C@@H](O)[C@H](O)[C@@H]1O (stereo partly specified) | CP252 | inactive

Challenge: What outcome does the record of this test show for `C[Si](C)(C)O[Si](C)(C)C` ?
Response given: inactive

Challenge: What outcome does the record of this test show for `CC(=O)[C@H]1CC[C@H]2[C@@H]3C=CC4=CC(=O)CC[C@@]4(C)[C@H]3CC[C@]12C` ?
Response given: inactive

Challenge: What outcome does the record of this test show for `O=C(O)[C@H]1CN(C/C=C/P(=O)(O)O)CCN1` ?
Response given: inactive

* * *

- Test system: CP266
- protocol_description: qHTS profiling for inhibitors of Plasmodium falciparum proliferation (AID 504749); also: nearly all actives have a fitted effect of over 60% in size
- assay_setup: P. falciparum in erythrocytes, SYBR Green DNA, 72 h; series mostly up to 28.7 µM
Results filed as inconclusive are left out. The source made the active and inactive calls. Calls come from the whole dose curve; as a rule, active = well fitted inhibition curve with a large enough effect; inconclusive = small, poorly fitted or top-dose-only effect; inactive = flat fitted curve, though single readings scatter.
Select the matching outcome among active, inactive

Challenge: What outcome does the record of this test show for `NCC[C@H](O)C(=O)N[C@@H]1C[C@H](N)[C@@H](O[C@H]2O[C@H](CN)[C@@H](O)[C@H](O)[C@H]2O)[C@H](O)[C@H]1O[C@H]1O[C@H](CO)[C@@H](O)[C@H](N)[C@H]1O` ?
Response given: inactive

Challenge: What outcome does the record of this test show for `CN=C1C=CC(=C(c2ccc(N(C)C)cc2)c2ccc(N(C)C)cc2)C=C1` ?
Response given: active

Challenge: What outcome does the record of this test show for CCCCC(CC)COS(=O)(=O)O (stereo not given) ?
Response given: inactive

Challenge: What outcome does the record of this test show for `CO/N=C(/C(=O)N[C@@H]1C(=O)N2C(C(=O)O)=C(COC(N)=O)CS[C@H]12)c1ccco1` ?
Response given: inactive

Challenge: What outcome does the record of this test show for `OCC(O)CO` ?
Response given: inactive

Challenge: What outcome does the record of this test show for `CC(C)(C)CC(C)(C)c1cc(Cc2cc(C(C)(C)CC(C)(C)C)cc(-n3nc4ccccc4n3)c2O)c(O)c(-n2nc3ccccc3n2)c1` ?
Response given: inactive

Challenge: What outcome does the record of this test show for `CCCCCCCCCCCCOCCCN` ?
Response given: inactive

Challenge: What outcome does the record of this test show for `CNC(=O)OCc1cccc(COC(=O)NC)n1` ?
Response given: inactive

Challenge: What outcome does the record of this test show for `Cc1ncc(COP(=O)(O)O)c(CN)c1O` ?
Response given: inactive

Challenge: What outcome does the record of this test show for `O=C1c2ccccc2C(=O)C1c1ccc(F)cc1` ?
Response given: inactive
